Origin of measurements: patent US20260242478A1

- measured_on: T1, Anti-CD28 Fab (SEQ ID NOs: 696, 697)
- T1 construct: Biotinylated and captured on neutravidin coated plates in the phage ELISA
- method: phage ELISA; biotinylated anti-CD28 Fab on neutravidin plate, wells pre-incubated with CD28 antigen as competitor, anti-M13 HRP detection
Here the recorded Phage binding ELISA, Anti-CD28 Fab signal in the presence of CD28 is given for each entry.
measured_attribute: Phage binding ELISA, Anti-CD28 Fab signal in the presence of CD28

| binder | value_reported |
| --- | --- |
| WCGVGMDWRWPECL [Phage-1569] | 0.16 |
| TCAAGANWHWPWCF [Phage-1561] | 0.15 |
| TCSAGFSYKWPWCW [Phage-1564] | 0.06 |
| TCSAGATYTWPSCF [Phage-1572] | 0.06 |
